The measured values listed here are drawn from patent US20230407243A1.

# System: wild-type K-12-Pore
# protocol: Checkerboard synergy (FICI), porinated strain
# Format: cell-based, Escherichia coli
# studyConditions: K-12 Pore; antibiotic in combination with PAβN
valueType: MICb Combined

compoundStructureString	valueType	valueMeasured
CO[C@@H]1[C@@H](OC(N)=O)[C@@H](O)[C@H](Oc2ccc3c(O)c(NC(=O)c4ccc(O)c(CC=C(C)C)c4)c(=O)oc3c2C)OC1(C)C	MICb Combined	8 µg/mL
Cc1onc(-c2ccccc2)c1C(=O)N[C@@H]1C(=O)N2[C@@H]1SC(C)(C)[C@@H]2C(=O)O	MICb Combined	16 µg/mL
CC[C@H]1OC(=O)[C@H](C)[C@@H](O[C@H]2C[C@@](C)(OC)[C@@H](O)[C@H](C)O2)[C@H](C)[C@@H](O[C@@H]2O[C@H](C)C[C@H](N(C)C)[C@H]2O)[C@](C)(O)C[C@@H](C)C(=O)[C@H](C)[C@@H](O)[C@]1(C)O	MICb Combined	0.25 µg/mL
CC(=O)O[C@H]1C[C@@]2(C)[C@@H](C[C@@H](O)[C@H]3[C@@]4(C)CC[C@@H](O)[C@@H](C)[C@@H]4CC[C@@]32C)/C1=C(\CCC=C(C)C)C(=O)O	MICb Combined	32 µg/mL
CC(=O)NC[C@H]1CN(c2ccc(N3CCOCC3)c(F)c2)C(=O)O1	MICb Combined	16 µg/mL

* * *

# Tested on: EKO-35 porinated strain expressing acrB
# protocol: Checkerboard synergy (FICI), porinated strain
# Assay type: cell-based, Escherichia coli
# studyConditions: strain EKO-35 acrB Pore; antibiotic alone
Binary call on MICb Alone with cut-off 60 µg/mL: strictly below means Criterion met, and equality or higher means Criterion not met.

compound	classification
CC[n+]1c(-c2ccccc2)c2cc(N)ccc2c2ccc(N)cc21 [ethidium bromide]	Criterion met
Cc1onc(-c2ccccc2)c1C(=O)N[C@@H]1C(=O)N2[C@@H]1SC(C)(C)[C@@H]2C(=O)O	Criterion not met
CC[C@H]1OC(=O)[C@H](C)[C@@H](O[C@H]2C[C@@](C)(OC)[C@@H](O)[C@H](C)O2)[C@H](C)[C@@H](O[C@@H]2O[C@H](C)C[C@H](N(C)C)[C@H]2O)[C@](C)(O)C[C@@H](C)C(=O)[C@H](C)[C@@H](O)[C@]1(C)O	Criterion met
CC(=O)O[C@H]1C[C@@]2(C)[C@@H](C[C@@H](O)[C@H]3[C@@]4(C)CC[C@@H](O)[C@@H](C)[C@@H]4CC[C@@]32C)/C1=C(\CCC=C(C)C)C(=O)O	Criterion not met
CC(=O)NC[C@H]1CN(c2ccc(N3CCOCC3)c(F)c2)C(=O)O1	Criterion not met

* * *

# Test system: EKO-35 araC::mdtEF Pore
# protocol: MIC susceptibility profiling, porinated efflux platform
# Assay type: cell-based, Escherichia coli
# studyConditions: Table 14A; porinated; technical duplicate
valueType: Minimum inhibitory concentration, EKO-35 araC::mdtEF Pore (µg/mL)

compound	valueMeasured
N#CC(=NNc1cccc(C(F)(F)F)c1)C(=O)c1ccsc1	320
O=C(Nc1ccccc1)Nc1ccc(Br)c(C(F)(F)F)c1	320
O=C(Nc1ccccc1C(=O)Nc1nnc(C(F)(F)F)s1)c1ccccc1Cl	320
CC(C)(C)c1cc(C(=O)NNC(=O)Nc2cccc3ccccc23)n(Cc2ccc(F)cc2)n1	320
N#CC(C#N)=NNc1cccc(Cl)c1	6.25
C[n+]1c2cc(N)ccc2cc2ccc(N)cc21.[Cl-]	0.195
O=c1oc(-c2ccccc2Cl)nn1-c1ccc(C(F)(F)F)cn1	320
O=[N+]([O-])c1ccc2c(c1)C(=NO)c1cc([N+](=O)[O-])ccc1-2	5
N#CC(=NNc1ccc(F)c(Cl)c1)C(=O)c1ccc(Cl)cc1	320
N#Cc1ccc(-c2c(NC(=O)C(Cl)Cl)oc(-c3cccs3)c2C#N)cc1	320
COC(=O)c1sc(N2CCCC2)c(C#N)c1-c1cccs1	160
O=C(NC(=O)N1CCc2c([nH]c3ccccc23)C1C(F)(F)F)c1ccccc1 (centres unmarked)	40
C=C1CCO[C@]2([C@@H](O)[C@@](C)(O)CO)NC(=O)[C@@]1(O)NC2=O	200
N#CC(C#N)=NNc1ccc(-n2ccc(C(F)(F)F)n2)cc1	80
Nc1ccccc1SCc1nc(-c2ccc(Cl)cc2)no1	80
O=C(Nc1cccc(Oc2c(F)c(F)c(F)c(F)c2F)c1)c1ccccc1	320
CC(C)c1ccc(C=C(C#N)c2nc3ccccc3[nH]2)cc1	320
C[C@H](CCC(=O)NCCS(=O)(=O)[O-])[C@H]1CC[C@H]2[C@@H]3CC[C@@H]4C[C@H](O)CC[C@]4(C)[C@H]3C[C@H](O)[C@]12C.[Na+] [sodium taurodeoxycholate]	1000
O=C(Nc1ccc(C(F)(F)F)cc1)Nc1ccc(C(F)(F)F)cc1	320
Cn1cc(Br)c(-c2cccc(NC(=O)Nc3ccc(OC(F)(F)F)cc3)c2)n1	320
